Target: Sodium-dependent dopamine transporter (Rattus norvegicus, UniProt P23977)
Sequence (P23977 whole entry): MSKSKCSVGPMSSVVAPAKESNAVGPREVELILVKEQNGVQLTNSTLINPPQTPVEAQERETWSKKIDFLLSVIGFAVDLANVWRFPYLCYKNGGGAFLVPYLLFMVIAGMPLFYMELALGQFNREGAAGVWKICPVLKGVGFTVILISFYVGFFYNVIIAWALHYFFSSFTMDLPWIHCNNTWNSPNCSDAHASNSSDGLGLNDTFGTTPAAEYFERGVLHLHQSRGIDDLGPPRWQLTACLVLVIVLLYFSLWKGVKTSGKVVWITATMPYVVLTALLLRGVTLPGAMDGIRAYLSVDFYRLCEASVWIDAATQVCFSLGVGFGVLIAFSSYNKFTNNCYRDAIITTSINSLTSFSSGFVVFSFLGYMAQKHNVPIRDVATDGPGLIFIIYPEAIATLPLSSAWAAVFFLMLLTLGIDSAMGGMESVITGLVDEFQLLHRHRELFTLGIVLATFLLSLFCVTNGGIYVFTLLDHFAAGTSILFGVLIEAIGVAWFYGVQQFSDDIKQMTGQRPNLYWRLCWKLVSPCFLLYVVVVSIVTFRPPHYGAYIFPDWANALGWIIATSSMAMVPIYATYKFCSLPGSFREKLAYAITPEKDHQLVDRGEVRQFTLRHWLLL
readout: Ki (µM)
The figure you give is taken to be in µM; do not add the unit.

Worked cases, answers included:
Given Cc1ccc([C@@H](O)[C@@H]2C3CC[C@H](C[C@@H]2c2ccc(C)cc2)N3C)cc1 , state its recorded Ki.
0.085

Entry under review: Cc1ccc(C(=O)C2C(c3ccc(C)cc3)CC3CCC2N3C)cc1 (stereo not drawn) . Reported Ki?
0.017

What value of measured Ki is listed for Cc1ccc(C2C[C@H]3CCC([C@@H]2CO)N3C)cc1 (stereo partly drawn) ?
3.49

More entries:
Fill in: Ki of Cc1ccc([C@H]2C[C@H]3CC[C@H]([C@@H]2[C@@H](O)c2ccc(C)cc2)N3C)cc1 is ___
0.025

For the compound Cc1ccc(C2C[C@H]3CCC(C2CCCO)N3C)cc1 (stereo partly drawn) , what Ki is on record?
0.136

Recorded Ki of Cc1ccc([C@H]2C[C@H]3CC[C@H]([C@H]2[C@@H](O)c2ccc(C)cc2)N3C)cc1 , please.
0.014

Would you mind telling me what Ki value was observed for Cc1ccc(CC2C(c3ccc(C)cc3)C[C@H]3CCC2N3C)cc1 (stereo partly drawn) ?
0.011

What measured Ki goes with COC(=O)/C=C/C1C(c2ccc(C)cc2)C[C@H]2CCC1N2C (stereo partly drawn) ?
0.123

====

Each entry below lists one item and its recorded pKi value.
Molecular target: Sodium-dependent serotonin transporter (Rattus norvegicus)
Sequence (P31652 whole entry): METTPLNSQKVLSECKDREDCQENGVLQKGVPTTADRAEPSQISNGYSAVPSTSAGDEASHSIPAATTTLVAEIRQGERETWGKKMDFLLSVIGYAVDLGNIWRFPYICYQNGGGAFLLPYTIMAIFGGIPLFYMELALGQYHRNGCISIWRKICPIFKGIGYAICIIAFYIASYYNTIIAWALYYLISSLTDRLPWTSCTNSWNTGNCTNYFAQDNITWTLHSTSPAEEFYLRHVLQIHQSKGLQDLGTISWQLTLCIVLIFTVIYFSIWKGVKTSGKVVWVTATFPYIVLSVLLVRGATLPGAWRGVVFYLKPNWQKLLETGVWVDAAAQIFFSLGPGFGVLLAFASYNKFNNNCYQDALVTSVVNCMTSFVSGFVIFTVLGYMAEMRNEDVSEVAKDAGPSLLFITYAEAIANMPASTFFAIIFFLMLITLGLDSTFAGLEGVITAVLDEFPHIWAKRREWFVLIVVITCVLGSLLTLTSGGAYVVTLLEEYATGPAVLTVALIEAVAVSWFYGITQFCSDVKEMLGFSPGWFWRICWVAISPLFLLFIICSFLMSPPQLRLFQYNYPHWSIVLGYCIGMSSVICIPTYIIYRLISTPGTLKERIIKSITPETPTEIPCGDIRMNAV
Keep in mind that pKi stands for -log10 of concentration in molar terms.

Give its pKi value. Item: Cc1ccc([C@@H](O)[C@@H]2C3CC[C@H](C[C@@H]2c2ccc(C)cc2)N3C)cc1
7.15

Report pKi for Cc1ccc([C@H]2C[C@H]3CC[C@H]([C@H]2[C@@H](O)c2ccc(C)cc2)N3C)cc1 please.
7.18

# input for lookup
I would be grateful if you could share the reported pKi for Cc1ccc(C2C[C@H]3CCC([C@@H]2CO)N3C)cc1 (stereo partly drawn) .
4.80

====

Record: Ki reported on Norepinephrine transporter (Rattus norvegicus).
Sequence (Q9WTR4 whole entry): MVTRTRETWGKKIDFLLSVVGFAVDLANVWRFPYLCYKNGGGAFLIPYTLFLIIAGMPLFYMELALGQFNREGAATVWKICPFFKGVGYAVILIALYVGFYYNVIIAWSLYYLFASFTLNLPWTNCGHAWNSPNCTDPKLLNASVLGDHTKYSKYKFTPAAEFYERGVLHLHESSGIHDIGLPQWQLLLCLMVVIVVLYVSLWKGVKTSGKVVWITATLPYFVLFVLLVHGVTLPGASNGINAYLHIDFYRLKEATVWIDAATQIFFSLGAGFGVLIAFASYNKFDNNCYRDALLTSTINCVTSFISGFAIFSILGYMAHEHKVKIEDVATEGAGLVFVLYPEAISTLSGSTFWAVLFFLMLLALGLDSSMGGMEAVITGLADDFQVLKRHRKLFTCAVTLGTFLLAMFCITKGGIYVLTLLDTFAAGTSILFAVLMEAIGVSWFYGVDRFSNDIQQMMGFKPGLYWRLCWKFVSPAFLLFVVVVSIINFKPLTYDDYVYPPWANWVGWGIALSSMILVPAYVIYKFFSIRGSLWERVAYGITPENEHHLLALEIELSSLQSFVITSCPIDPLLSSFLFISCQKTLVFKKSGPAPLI
Form entry: value (nM) — number only.

Here is how some molecules turned out for Ki.
Which measured Ki value corresponds to Cc1ccc(C2C[C@H]3CCC([C@@H]2CO)N3C)cc1 (some centres undefined) ?
16800

// returns reported Ki for input Cc1ccc([C@H]2C[C@H]3CC[C@H]([C@H]2[C@@H](O)c2ccc(C)cc2)N3C)cc1
464

What value of measured Ki is listed for Cc1ccc([C@@H](O)[C@@H]2C3CC[C@H](C[C@@H]2c2ccc(C)cc2)N3C)cc1 ?
214

Now consider the entry below.
Fill in: Ki of Cc1ccc(CC2C(c3ccc(C)cc3)C[C@H]3CCC2N3C)cc1 (some centres undefined) is ___
271
